Assay Notes: qHTS for Inflammasome Signaling Inhibitors: IL-1-beta AlphaLISA screen against the NCATS CANVASS Library (AID 1347379);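 also: human THP-1 cells primed with LPS then triggered with ATP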
Measurement Setup: THP-1 LPS/ATP, IL-1B AlphaLISA secretion, 16 h; series mostly up to 57.5 µM
Inconclusive results are not listed. Activity calls are given as the source filed them. Calls follow the shape of the dose curve; as a rule, active = well fitted inhibition curve with a large enough effect; inconclusive = small, poorly fitted or top-dose-only effect; inactive = flat fitted curve, though single readings scatter. Starred links: 1 amine or outer side, 2 acyl side, 3 side chain; linkers in the order of their positions; H or OH if unused. Positions of bridges follow the written chain, without caps; N, C: chain ends. Non-standard residues stand in square brackets, D forms with d. Residues, ends and D or L forms follow the SMILES beside them. ξ: configuration not given here. *: point of attachment. X3 = C[C@@H](Oc1ccc([C@H](N[*:1])C(=O)[*:2])cc1)[C@]1(/C=C\C(=O)[*:3])CO1; d(aIle) = CC[C@H](C)[C@@H](N)C(=O)O; X2 = CC(C)[C@@H](O)C(C)C(=O)*; ξNMeF = CNC(Cc1ccccc1)C(=O)O; ξT = CC(O)C(N)C(=O)O; ξS = NC(CO)C(=O)O
Reply using exactly one outcome from True for active, False for inactive

Please review the entries below; each comes with its answer.
Compound	Classification
C=C[C@]12C=CCN3CC[C@@]4(c5ccccc5NC(=O)[C@@H]4C1)[C@@H]32	False
CC[C@H]1CN2CCc3c([nH]c4cccc(OC)c34)[C@@H]2C[C@@H]1/C(=C\OC)C(=O)OC	False
C=C[C@H]1CN2CCc3c([nH]c4cccc(OC)c34)[C@@H]2C[C@@H]1/C(=C\OC)C(=O)OC	False
CC[C@H](C)[C@H]1NC(=O)[C@@H](NC(=O)C(C)[C@H](O)C(C)C)[C@@H](C)OC(=O)C2COC(=O)CNC(=O)/C=C\[C@]3(CO3)[C@@H](C)Oc3ccc(cc3)[C@H](NC1=O)C(=O)N(C)C(Cc1ccccc1)C(=O)NC(C(C)O)C(=O)N2 (some centres not stated) (X2-T[d(aIle)][X3][ξNMeF][ξT][ξS]; ester 1-C; linker 3-6 via G)	False
C[N+](C)(C)CCc1c[nH]c2ccccc12	False
CC(C)CC1C(=O)O[C@H](C(C)C)C(=O)N(C)C(CC(C)C)C(=O)O[C@@H](C(C)C)C(=O)N(C)C(CC(C)C)C(=O)O[C@H](C(C)C)C(=O)N(C)C(CC(C)C)C(=O)O[C@@H](C(C)C)C(=O)N1C (some centres not stated)	False

Entry C[C@]12CC(O)C3[C@@H](CC[C@@H]4C[C@@H](O)CC[C@]34CO)[C@@]1(O)CC[C@@H]2C1=CC(=O)OC1 (some centres not stated) : call = ?
True
